biological target: UniProt Q9UBN7; assay: HDAC inhibition assay, HDAC6; type: biochemical; conditions: Table 1A; mean of two experiments ± standard deviation; read-out: HDAC6 IC50
Sequence (Q9UBN7 whole entry): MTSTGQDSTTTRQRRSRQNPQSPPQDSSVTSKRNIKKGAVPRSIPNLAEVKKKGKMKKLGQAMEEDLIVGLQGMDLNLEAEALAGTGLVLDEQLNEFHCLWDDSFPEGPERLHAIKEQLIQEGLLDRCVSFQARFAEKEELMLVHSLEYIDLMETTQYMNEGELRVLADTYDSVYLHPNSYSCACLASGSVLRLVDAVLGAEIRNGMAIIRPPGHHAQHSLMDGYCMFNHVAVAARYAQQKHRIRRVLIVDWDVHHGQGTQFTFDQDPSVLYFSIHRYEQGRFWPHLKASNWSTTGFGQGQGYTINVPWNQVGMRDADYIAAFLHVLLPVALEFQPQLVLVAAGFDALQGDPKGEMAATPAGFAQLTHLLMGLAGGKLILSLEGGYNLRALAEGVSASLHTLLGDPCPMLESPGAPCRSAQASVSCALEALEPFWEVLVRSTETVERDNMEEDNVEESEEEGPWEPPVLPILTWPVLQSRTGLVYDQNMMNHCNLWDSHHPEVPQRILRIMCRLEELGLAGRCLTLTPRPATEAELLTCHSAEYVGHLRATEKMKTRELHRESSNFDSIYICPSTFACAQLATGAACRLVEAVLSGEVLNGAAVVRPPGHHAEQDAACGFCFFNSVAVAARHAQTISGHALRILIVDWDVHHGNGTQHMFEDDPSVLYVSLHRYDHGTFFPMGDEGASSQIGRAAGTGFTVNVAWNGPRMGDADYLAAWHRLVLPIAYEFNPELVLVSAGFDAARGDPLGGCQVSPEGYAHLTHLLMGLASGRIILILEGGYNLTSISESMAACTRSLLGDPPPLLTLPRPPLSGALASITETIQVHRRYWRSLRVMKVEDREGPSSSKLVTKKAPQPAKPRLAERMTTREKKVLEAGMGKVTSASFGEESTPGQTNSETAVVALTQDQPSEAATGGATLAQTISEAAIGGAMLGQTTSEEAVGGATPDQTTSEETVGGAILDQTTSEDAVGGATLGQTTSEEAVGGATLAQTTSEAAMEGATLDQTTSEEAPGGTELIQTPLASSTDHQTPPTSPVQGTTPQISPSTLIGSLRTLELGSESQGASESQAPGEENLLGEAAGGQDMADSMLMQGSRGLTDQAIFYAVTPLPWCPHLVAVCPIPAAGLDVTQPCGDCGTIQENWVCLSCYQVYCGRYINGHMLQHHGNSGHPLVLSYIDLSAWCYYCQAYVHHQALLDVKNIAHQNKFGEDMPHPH
MEASURED_ATTRIBUTE: pIC50
The meaning of pIC50 here: minus log10 of the concentration in molar units.

Please state recorded pIC50 (tested on UniProt Q9UBN7) of COc1ccccc1NC(=O)NCc1ccc(C(N)=O)cc1
6.86

---

target: HDAC1 (Homo sapiens (Human)); assay: HDAC inhibition assay, HDAC1; assay type: biochemical; settings: Table 1A; mean of two experiments ± standard deviation; read-out: HDAC1 IC50
Sequence (Q13547 whole entry): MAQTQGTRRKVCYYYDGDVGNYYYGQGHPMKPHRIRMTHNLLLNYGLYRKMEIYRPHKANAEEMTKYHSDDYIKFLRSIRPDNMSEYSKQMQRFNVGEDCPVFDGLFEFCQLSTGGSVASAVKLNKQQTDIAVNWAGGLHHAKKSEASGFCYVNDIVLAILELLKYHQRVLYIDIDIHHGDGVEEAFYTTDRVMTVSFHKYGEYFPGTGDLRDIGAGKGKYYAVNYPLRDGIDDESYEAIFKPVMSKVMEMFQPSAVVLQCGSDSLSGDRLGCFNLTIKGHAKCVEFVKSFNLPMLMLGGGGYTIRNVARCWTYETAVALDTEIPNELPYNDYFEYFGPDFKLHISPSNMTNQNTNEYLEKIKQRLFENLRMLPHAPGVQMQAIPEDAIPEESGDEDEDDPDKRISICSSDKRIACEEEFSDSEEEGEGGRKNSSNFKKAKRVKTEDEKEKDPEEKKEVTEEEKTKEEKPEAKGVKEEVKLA
MEASURED_ATTRIBUTE: pIC50
The meaning of pIC50 here: minus log10 of the concentration in molar units.

Name the reported pIC50 value associated with the compound COc1ccccc1NC(=O)NCc1ccc(C(N)=O)cc1
6.58
